biological target: furin, P09958; assay: furin cleavage Z-score vs untreated control; higher = more cleavage, active = 3.5 or more, inactive = 1 or less, 8 variable residues between constant flanks; conditions: 15 min;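 further: purified furin at 1:10 enzyme:substrate in 50 mM HEPES pH 7.5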
Sequence (P09958 whole entry): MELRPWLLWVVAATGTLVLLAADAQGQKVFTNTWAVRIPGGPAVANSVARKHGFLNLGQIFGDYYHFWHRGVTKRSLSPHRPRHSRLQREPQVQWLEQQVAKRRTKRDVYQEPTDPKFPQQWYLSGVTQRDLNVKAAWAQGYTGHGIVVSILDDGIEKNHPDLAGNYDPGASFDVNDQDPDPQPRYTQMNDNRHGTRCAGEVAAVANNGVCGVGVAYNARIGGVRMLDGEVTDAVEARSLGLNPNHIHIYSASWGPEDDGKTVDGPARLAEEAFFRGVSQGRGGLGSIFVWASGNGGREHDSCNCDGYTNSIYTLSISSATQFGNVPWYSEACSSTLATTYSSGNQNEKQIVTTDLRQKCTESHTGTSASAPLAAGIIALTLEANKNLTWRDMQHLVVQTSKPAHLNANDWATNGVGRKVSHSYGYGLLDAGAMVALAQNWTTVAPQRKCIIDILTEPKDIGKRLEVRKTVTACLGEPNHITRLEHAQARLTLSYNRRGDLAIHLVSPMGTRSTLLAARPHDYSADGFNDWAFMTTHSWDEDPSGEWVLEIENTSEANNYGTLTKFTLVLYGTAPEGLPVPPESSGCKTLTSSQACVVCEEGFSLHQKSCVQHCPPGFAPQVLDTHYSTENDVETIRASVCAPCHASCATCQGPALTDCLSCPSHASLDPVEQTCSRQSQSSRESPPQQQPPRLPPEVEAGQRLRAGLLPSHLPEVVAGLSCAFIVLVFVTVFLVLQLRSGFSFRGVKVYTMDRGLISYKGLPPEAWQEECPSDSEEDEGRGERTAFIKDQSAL
Some of the results follow. How many sequences the whole screen found active is unknown.
One label from this list, please: 1 for active, 0 for inactive

Inquiry: Would you mind telling me which call this test gave CADRSRRVRSAGNASASA [FS-1190] ?
Reply text: 1

Inquiry: Lookup CAVSCCSMSYAGNASASA [HC2017]
Reply text: 0

Inquiry: Input CAHLKRDTEDAGNASASA [FS-2863]
Reply text: 0
